Known response of a selection of substances
Biological target: Recombinant CbpF from Fn ATCC 25586 (group I), passenger domain (UniProt Q8RIS0)
Assay: ELISA
Conditions: 3 pmol CbpF; 15 fmol CEACAM1-3-Fc mutant; developed for 5 hrs at 37°C; parent: est. 0.43; read off a plot
The figure you give is taken to be in A405; do not add the unit.

Field request: response | item: CEACAM1-3-Fc (containing N-A1-B1 domains) Q44L
0.027

Lookup CEACAM1-3-Fc (containing N-A1-B1 domains) Q44R
0.02

Lookup CEACAM1-3-Fc (containing N-A1-B1 domains) G47L
0.007

Lookup CEACAM1-3-Fc (containing N-A1-B1 domains) I91L
0.022

Lookup CEACAM1-3-Fc (containing N-A1-B1 domains) I91A
0.02
